Ref: the MegaScale stability set (Tsuboyama et al. 2023)

B1: 2K2A (parent)
chain: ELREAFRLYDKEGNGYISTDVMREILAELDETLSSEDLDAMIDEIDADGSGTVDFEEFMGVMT

variants of: B1; test: folding stability dG (cDNA display proteolysis); higher = more stable; settings: PBS, room temperature
Exercise: state measured folding stability dG for each of the variants provided.
Give just the numeric value; kcal/mol need not be written.

stdin: For the variant ELRETFRLYDKEGNGYISTDVMREILAELDETLSSEDLDAMIDEIDADGSGTVDFEEFMGVMT , report folding stability dG.
stdout: 2.14

stdin: For the variant ELREAFRLYDKEGNGYIITDVMREILAELDETLSSEDLDAMIDEIDADGSGTVDFEEFMGVMT , report folding stability dG.
stdout: 0.865

stdin: For the variant ELREAFRLYDKEGNGYISTDVMREILAELDETLSSEDLDAMIDEIDADGSGTVDFEEFMGVKT , report folding stability dG.
stdout: 0.674

stdin: For the variant ELREAFRLYDKEGNGYISTDVMREILAELDETLSSEDLDAMIDEIDADGSGTVDFEEFMEVMT , report folding stability dG.
stdout: 1.85

stdin: For the variant ELREAFRLYDKEGNGYISMDVMREILAELDETLSSEDLDAMIDEIDADGSGTVDFEEFMGVMT , report folding stability dG.
stdout: 1.91

stdin: For the variant ELREAFRLYDKEGNGYISTDVMREILAELDETLSSEDLDAMIDEIDADGSGTVDNEEFMGVMT , report folding stability dG.
stdout: -0.55

stdin: For the variant ELREAFRLYDKEGNGYISTDVMREILAELDETLSSEDLDAMIDEIDADGSGTVDFEEFMGVMD , report folding stability dG.
stdout: 1.26

stdin: For the variant ELREAFRLYDKEGNGYISTDSMREILAELDETLSSEDLDAMIDEIDADGSGTVDFEEFMGVMT , report folding stability dG.
stdout: 1.94

stdin: For the variant ELREAFRLYDKEGNGYISTDVMREILAELDETLSSEDWDAMIDEIDADGSGTVDFEEFMGVMT , report folding stability dG.
stdout: 0.599

stdin: For the variant ELREAFRLYDKEGNGYISTDVMREIIAELDETLSSEDLDAMIDEIDADGSGTVDFEEFMGVMT , report folding stability dG.
stdout: 1.45

stdin: For the variant ELREAFRLYDKEGNGYISTDVMREILKELDETLSSEDLDAMIDEIDADGSGTVDFEEFMGVMT , report folding stability dG.
stdout: 2.21

stdin: For the variant ELREAFRLYDKEGNGYISTDVMREILAELDETLSSEDLDAMIDEIDADGSGTVDFEELMGVMT , report folding stability dG.
stdout: 0.779

stdin: For the variant ELREAFRLYDKEGNGYISTDVMREILAELDETLSSEDLDAMIDEIWADGSGTVDFEEFMGVMT , report folding stability dG.
stdout: 0.628

stdin: For the variant ELREAFRLYDKEGNGYISTDVMREILAEHDETLSSEDLDAMIDEIDADGSGTVDFEEFMGVMT , report folding stability dG.
stdout: 1.73

stdin: For the variant ELREAFRLYDKEGNGYISTDVMREILAELDETLSFEDLDAMIDEIDADGSGTVDFEEFMGVMT , report folding stability dG.
stdout: 1.48

stdin: For the variant ELREAFRLYDKEGNGYISTDVMREILAELDETLSSEDLDAVIDEIDADGSGTVDFEEFMGVMT , report folding stability dG.
stdout: 1.21

stdin: For the variant ELREAFRLYDKEGNGYISTDVMREILAELDETLSSEDLDAMIDEADADGSGTVDFEEFMGVMT , report folding stability dG.
stdout: 1.56

stdin: For the variant ELREAFRLYDKEGNGYISTDVMREVLAELDETLSSEDLDAMIDEIDADGSGTVDFEEFMGVMT , report folding stability dG.
stdout: 1.31

stdin: For the variant ELREAFRLYDKEGNGYISTDVMREILAELDETLSSEDLDAMFDEIDADGSGTVDFEEFMGVMT , report folding stability dG.
stdout: 1.08

stdin: For the variant ELREQFRLYDKEGNGYISTDVMREILAELDETLSSEDLDAMIDEIDADGSGTVDFEEFMGVMT , report folding stability dG.
stdout: 2.3

stdin: For the variant ELREAFRLYDKEGNGYISTDVMREILAELDETLSSEDLDAMIDEIDAYGSGTVDFEEFMGVMT , report folding stability dG.
stdout: 1.3

stdin: For the variant ELREAFRLYDKEGNGYISTDVMREILAELDETLSSEDLDAMIDEIDADCSGTVDFEEFMGVMT , report folding stability dG.
stdout: 1.71

stdin: For the variant ELREAFRLYDKEGNGYISTDVMREILAELDETLSSEDLDAYIDEIDADGSGTVDFEEFMGVMT , report folding stability dG.
stdout: 1.61

stdin: For the variant ELREAFRLYDKEGNGYISTDVMREILAELDETLSSEDLDAQIDEIDADGSGTVDFEEFMGVMT , report folding stability dG.
stdout: 0.887

stdin: For the variant ELREAFRLYDKEGNGYISTDVMREILAELDETLSSEDLDAMIDEIDADGSGTVDFEEFMHVMT , report folding stability dG.
stdout: 2.48

stdin: For the variant ELREAFRLYDKEGNGYISTDVMREILAELDETLSSEDLDAMIDEIDADGSGTVDFEEQMGVMT , report folding stability dG.
stdout: -0.946

stdin: For the variant ELREAFRLYDKEGNGYISTDVMREILAELDETLSSEDLDAMIDEIDADGGGTVDFEEFMGVMT , report folding stability dG.
stdout: 1.05

stdin: For the variant ELREAFRLYDKEGNGYISTDVMREILAELDETLSSEDLDANIDEIDADGSGTVDFEEFMGVMT , report folding stability dG.
stdout: -0.4

stdin: For the variant ELREAFRLYDKEGNGYISTDVMREILAELDETTSSEDLDAMIDEIDADGSGTVDFEEFMGVMT , report folding stability dG.
stdout: 0.695

stdin: For the variant ELREAFRLYDKEGNGYISTDVMREILAELDETLSSEDLKAMIDEIDADGSGTVDFEEFMGVMT , report folding stability dG.
stdout: 1.48

stdin: For the variant ELQEAFRLYDKEGNGYISTDVMREILAELDETLSSEDLDAMIDEIDADGSGTVDFEEFMGVMT , report folding stability dG.
stdout: 1.71

stdin: For the variant ELREAFRLYDKEGNGYISTDVMREILAELDETMSSEDLDAMIDEIDADGSGTVDFEEFMGVMT , report folding stability dG.
stdout: 1.41

stdin: For the variant ELREAFRLYDKEGNGYISTDVMREILAELDETLSSEDLDLMIDEIDADGSGTVDFEEFMGVMT , report folding stability dG.
stdout: 1.85

stdin: For the variant ELREAFRLYDKEGNGYISTDVMREILAETDETLSSEDLDAMIDEIDADGSGTVDFEEFMGVMT , report folding stability dG.
stdout: 1.15

stdin: For the variant ELREAFRLYDKEGNGIISTDVMREILAELDETLSSEDLDAMIDEIDADGSGTVDFEEFMGVMT , report folding stability dG.
stdout: 0.893

stdin: For the variant ELREAFRLYDKEGNGYISTDVMREILAELDETLSSEDLDAMIDEIDADASGTVDFEEFMGVMT , report folding stability dG.
stdout: 1.5

stdin: For the variant ELREAFRLYDKEGKGYISTDVMREILAELDETLSSEDLDAMIDEIDADGSGTVDFEEFMGVMT , report folding stability dG.
stdout: 2.09

stdin: For the variant ELREAFILYDKEGNGYISTDVMREILAELDETLSSEDLDAMIDEIDADGSGTVDFEEFMGVMT , report folding stability dG.
stdout: 1.93

stdin: For the variant ELREAFRLYDKEGNGYISTDVMREIYAELDETLSSEDLDAMIDEIDADGSGTVDFEEFMGVMT , report folding stability dG.
stdout: 0.295

stdin: For the variant ELREAFRLYDKEGNGGISTDVMREILAELDETLSSEDLDAMIDEIDADGSGTVDFEEFMGVMT , report folding stability dG.
stdout: -0.095

stdin: For the variant ELREAFRLYDKEGNGYISTDVMREILAELDETLKSEDLDAMIDEIDADGSGTVDFEEFMGVMT , report folding stability dG.
stdout: 1.45

stdin: For the variant ELREAFRLYDKEGNGFISTDVMREILAELDETLSSEDLDAMIDEIDADGSGTVDFEEFMGVMT , report folding stability dG.
stdout: 1.89

stdin: For the variant ELREAFRLYDKEGNGYISTDVMREILAELDETLSSEDLDAMIDEIDADGSGTVDFEEFMGAMT , report folding stability dG.
stdout: 2.2

stdin: For the variant ELREAFRLYDKEGNGYISTDVMAEILAELDETLSSEDLDAMIDEIDADGSGTVDFEEFMGVMT , report folding stability dG.
stdout: 0.182

stdin: For the variant ELREAFRLYDWEGNGYISTDVMREILAELDETLSSEDLDAMIDEIDADGSGTVDFEEFMGVMT , report folding stability dG.
stdout: 1.88

stdin: For the variant ELREAFRLYDKEGNGYISTDVMREILAELDETNSSEDLDAMIDEIDADGSGTVDFEEFMGVMT , report folding stability dG.
stdout: 0.113

stdin: For the variant ELREAFRLYDKEGNGYISTDVMREILAELDETLSSEDLDAMIDEIDADGSLTVDFEEFMGVMT , report folding stability dG.
stdout: 0.92

stdin: For the variant ELREAFRLYDKEGNGYISKDVMREILAELDETLSSEDLDAMIDEIDADGSGTVDFEEFMGVMT , report folding stability dG.
stdout: 1.67

stdin: For the variant ELREAFRLYDKEGNGHISTDVMREILAELDETLSSEDLDAMIDEIDADGSGTVDFEEFMGVMT , report folding stability dG.
stdout: 1.21

stdin: For the variant ELREAFRLYDKEGNGYISTDVMREILAELDETLSSEDLDAMIDEIDADPSGTVDFEEFMGVMT , report folding stability dG.
stdout: 0.091

stdin: For the variant ELREAFRLYDKEGNGYISTDVMREILAELDETLSSEDLDAMADEIDADGSGTVDFEEFMGVMT , report folding stability dG.
stdout: -0.231

stdin: For the variant ELREAFRLYDKEGNGYISTDVMREILAELDETLSSEDLDAMIDEIDADGSGTVDFEECMGVMT , report folding stability dG.
stdout: 0.529

stdin: For the variant ELREAFRLYDKEGNGYISTDVMREILAELDETLSSEDLDAAIDEIDADGSGTVDFEEFMGVMT , report folding stability dG.
stdout: 1.27

stdin: For the variant ELREAFRLYDKEGNGYLSTDVMREILAELDETLSSEDLDAMIDEIDADGSGTVDFEEFMGVMT , report folding stability dG.
stdout: 1.36

stdin: For the variant ELREAFRLYDKEGNGYISTDVMREILAELDETLSSEILDAMIDEIDADGSGTVDFEEFMGVMT , report folding stability dG.
stdout: 1.65

stdin: For the variant ELREAFRFYDKEGNGYISTDVMREILAELDETLSSEDLDAMIDEIDADGSGTVDFEEFMGVMT , report folding stability dG.
stdout: 2.1

stdin: For the variant ALREAFRLYDKEGNGYISTDVMREILAELDETLSSEDLDAMIDEIDADGSGTVDFEEFMGVMT , report folding stability dG.
stdout: 2.29

stdin: For the variant ELREAFRLYDKEGNGYISTDVMREILAELDETLSSEDLDAIIDEIDADGSGTVDFEEFMGVMT , report folding stability dG.
stdout: 1.86

stdin: For the variant ELREAFRLYDKEGNGYISTDVMREILAELDETLSSEDLDAMIDEIDSDGSGTVDFEEFMGVMT , report folding stability dG.
stdout: 1.8
